Hey, just so you know, these numbers are from PubChem BioAssay (NCI).

System: OVCAR-4 ovarian
Assay: NCI tumour cell line growth inhibition, 48 h
PARAMETER: TGI (µM)
Answer with a number only, understood to be in µM.

Before answering, review these 4 worked examples.
{"COMPOUND": "c1cc(-c2ccc(-c3nc4ccc(C5=NCCN5)cc4s3)s2)ccc1C1=NCCN1", "TGI [µM]": 0.5}
{"COMPOUND": "CN(CCNC(=O)c1c[nH]c2c1ccc1ccccc12)CCNC(=O)c1c[nH]c2c1ccc1ccccc12", "TGI [µM]": 11.7}
{"COMPOUND": "O=[N+]([O-])c1cccc(-c2nc(-c3ccc(Cl)cc3Cl)cn2-c2ccccc2)c1", "TGI [µM]": 1.12}
{"COMPOUND": "CC1=CC(C)(c2c[nH]c3ccccc23)CC(C)(C)c2c1[nH]c1ccccc21 (centres undefined)", "TGI [µM]": 27.7}

stdin: Fetch value of TGI on OVCAR-4 ovarian for "COc1ccc(/C(C)=N/NC(=O)CSc2nc3ccccc3c(=O)n2CCc2ccc(S(N)(=O)=O)cc2)cc1" .
stdout: 3.52

stdin: Please look at "O=c1c2cc(Br)cc(Br)c2nc(CCCl)n1-c1ccc(O)c([N+](=O)[O-])c1" and tell me its recorded TGI on OVCAR-4 ovarian.
stdout: 29

stdin: Report TGI from OVCAR-4 ovarian testing of "O=[N+]([O-])c1ccc(-n2nc3ccc4c(no[n+]4[O-])c3[n+]2[O-])c([N+](=O)[O-])c1"
stdout: 3.19

stdin: Quote OVCAR-4 ovarian TGI for entry "Cc1cccc(NC(=O)O/N=C(\Cl)C(C)C)c1" .
stdout: 29.4

====

Test system: MALME-3M melanoma
Assay: NCI tumour cell line growth inhibition, 48 h
PARAMETER: TGI (µM)
Quick reminder: number only, in µM, skip the unit.

{"COMPOUND": "COC(=O)c1c(C)[nH]c2c1C(=O)C(=O)c1nc(C)c(C)nc1-2", "DATA VALUE": 15.7}
{"COMPOUND": "O=[N+]([O-])c1ccc(-n2nc3ccc4c(no[n+]4[O-])c3[n+]2[O-])c([N+](=O)[O-])c1", "DATA VALUE": 7.45}
{"COMPOUND": "COc1cc(Cl)cc(-c2nn(-c3cccc(NC(=O)Nc4cccc(C(F)(F)F)c4)c3)cc2-c2ccncc2)c1", "DATA VALUE": 5.91}

stdin: Check MALME-3M melanoma data and give TGI for C[N+](C)(C)CC1CCC(C[N+](C)(C)C)C1=O (stereo not drawn) .
stdout: 2.28

====

Test system: EKVX NSCLC
Test: NCI tumour cell line growth inhibition, 48 h
TGI overview

{"COMPOUND": "S=C=Nc1ccc(CSc2nc3ccccc3[nH]2)cc1", "TGI": "40.4 µM"}

stdin: Return TGI for the following compound: CC(=O)OC1OC(c2ccoc2)C[C@@]12C1CCC3O[C@]3(C)[C@]1(C)[C@H](OC(C)=O)[C@H](OC(C)=O)[C@H]2C (some centres undefined)
stdout: > 37.5 µM

====

System: MOLT-4 leukemia
Test: NCI tumour cell line growth inhibition, 48 h
PARAMETER: TGI (µM)
Reply with just the number (in µM).

Worked set:
{"COMPOUND": "Cc1cc(C)c2c(n1)S(=O)(=O)N(CCCN1CCN(c3cccc(Cl)c3)CC1)/C(=C(\\O)c1ccccc1)C2=O", "PARAMETER": "TGI", "DATA VALUE": 44.4}
{"COMPOUND": "Cc1ccc(S(=O)(=O)OCC#CCOS(=O)(=O)c2ccc(C)cc2)cc1", "PARAMETER": "TGI", "DATA VALUE": 7.81}
{"COMPOUND": "CCN(CC)c1c(-c2ccccc2)n[nH]c1C(=O)OC", "PARAMETER": "TGI", "DATA VALUE": 58.2}
{"COMPOUND": "O=c1c2cc(Br)cc(Br)c2nc(CCCl)n1-c1ccc(O)c([N+](=O)[O-])c1", "PARAMETER": "TGI", "DATA VALUE": 50.5}

Here is the next item to consider.
stdin: Identify measured TGI associated with O=[N+]([O-])C1=Cc2cc(Cl)ccc2OC1c1cccc2ccccc12 (stereo not given)
stdout: 0.817

====

Tested on: A498 renal
Assay: NCI tumour cell line growth inhibition, 48 h
Measured TGI accompanies every entry in the list below.

The examples below pair each entry with its known result.
{"MOLECULE": "N#Cc1c(-c2ccccc2)cc(-c2ccc(N)cc2)[nH]c1=O", "TGT": "A498 renal", "TGI": "> 100 µM"}
{"MOLECULE": "Cc1ccc(S(=O)(=O)N2CCCSCCSCCCN(S(=O)(=O)c3ccc(C)cc3)CC2)cc1", "TGT": "A498 renal", "TGI": "> 100 µM"}
{"MOLECULE": "Cc1ccc(C(=O)NCCCOc2ccc(N3C(N)=NC(N)=NC3(C)C)cc2Cl)cc1S(=O)(=O)F", "TGT": "A498 renal", "TGI": "> 100 µM"}
{"MOLECULE": "CCCCCCCCOCC(O)CO (stereo not given)", "TGT": "A498 renal", "TGI": "> 100 µM"}
{"MOLECULE": "CCOC(=O)c1nc2ccccc2n(CC)c1=O", "TGT": "A498 renal", "TGI": "> 100 µM"}

stdin: Please report TGI with A498 renal for item "O=C(NCCc1ccccc1)Nc1ccc2cc3ccc(NC(=O)NCCc4ccccc4)cc3nc2c1" .
stdout: 8.44 µM

stdin: Please look at CC(=O)NC1C(OC(C)C(=O)NC(C(=O)NC(CCC(=O)NCCCNC2c3ccccc3Nc3cccc([N+](=O)[O-])c32)C(N)=O)C(C)C)C(O)C(CO)OC1(C)OCc1ccccc1 (stereo not given) and tell me its recorded TGI on A498 renal.
stdout: 4.11 µM

stdin: Lab note: record TGI of "CO/N=C(/C)c1cccc(Nc2nc3ccc(Cl)cc3c3[nH]c4ccccc4c23)c1" tested on A498 renal.
stdout: 14.2 µM

stdin: Retrieve TGI on A498 renal; query "Cc1c[nH]c(C(=O)O)c1-c1cccn1-c1ccc(Cl)cc1[N+](=O)[O-]"
stdout: > 100 µM

stdin: Enter TGI (test system A498 renal) for "Cc1ccc(C(=O)c2sc3nc4c(cc3c2N)CCCC4)c(C)c1"
stdout: 11 µM

====

Test system: HOP-92 NSCLC
Experiment: NCI tumour cell line growth inhibition, 48 h
Form field: GI50 (one value per entry).

Here is how some compounds turned out for GI50.
{"COMPOUND": "CCCOc1cc2ccccc2cc1C(=O)Nc1nc(NC)c2c(ccc3nccc32)[nH]1", "TGT": "HOP-92 NSCLC", "GI50": "1150 nM"}
{"COMPOUND": "CCN(CC)c1c(-c2ccccc2)n[nH]c1C(=O)OC", "TGT": "HOP-92 NSCLC", "GI50": "17800 nM"}
{"COMPOUND": "Cc1ccc(S(=O)(=O)OCC#CCOS(=O)(=O)c2ccc(C)cc2)cc1", "TGT": "HOP-92 NSCLC", "GI50": "1970 nM"}
{"COMPOUND": "[N-]=[N+]=NCCCn1c2c(c3ccc([N+](=O)[O-])cc3c1=O)C(=O)c1cc3c(cc1-2)OCO3", "TGT": "HOP-92 NSCLC", "GI50": "2560 nM"}

stdin: Identify measured GI50 associated with Clc1ccc(C2CC(c3cccc(Nc4ccncc4)c3)=NN2c2ccc(Cl)cc2)cc1 (stereo not given)
stdout: 1380 nM

====

Tested on: T-47D breast
Test: NCI tumour cell line growth inhibition, 48 h
TGI: recorded values
Expressed in µM, but write only the number.

Completed entries (count: 5):
{"MOLECULE": "O=C1c2c(ccc3c2CCC3)CC1Cc1ccc2c(c1)CCC2 (stereo not drawn)", "DATA VALUE": 27}
{"MOLECULE": "Cc1cn(C2C=CC(COP(=O)(OCc3ccc([N+](=O)[O-])o3)N(C)CCCCCl)O2)c(=O)[nH]c1=O (stereo not drawn)", "DATA VALUE": 7.05}
{"MOLECULE": "O=c1cc(-c2ccccc2)[nH]c2ccc(S)cc12", "DATA VALUE": 68}
{"MOLECULE": "N#Cc1ccc(-c2c(-c3ncn[nH]3)sc(N3CCOCC3)c2C#N)c(F)c1", "DATA VALUE": 0.522}
{"MOLECULE": "NCCCOc1cc2ccccc2cc1C(=O)Nc1ccc(Cl)cc1OC(=O)c1cc2ccccc2cc1OCCCN", "DATA VALUE": 1.02}

stdin: Check the records and state TGI for "Cc1cccc(NC(=O)O/N=C(\Cl)C(C)C)c1"
stdout: 15.6

stdin: Answer with the recorded TGI of "COCCOCCOCc1n(Cc2ccc3ccccc3c2)c2ccccc2[n+]1Cc1ccc2ccccc2c1" only.
stdout: 1.12

stdin: Please report the measured TGI for CO[C@@H]1CCN(c2nccc(Nc3cc4c(C(C)C)ccc(N5CC(CS(C)(=O)=O)[C@H]5C)c4cn3)n2)C[C@@H]1F (stereo partly drawn)
stdout: 13.4
